These data points were gathered from ChEMBL document CHEMBL3988442.

test system: Wolbachia pipientis; assay: Anti-Wolbachia Cell-Based Screen; format: functional; design: scale not given: in the data most compounds retested in dose-response had high values; details: 5 µM
The whole screen tested about 48,000 compounds, of which about 13,000 (27%) showed an effect of 50% or more. Some of the results follow.
I'd be grateful if you could share measured Percent Effect for these entries.
Answers are plain numbers, in %.

In the examples that follow, each entry is paired with its recorded Percent Effect.
| COMPOUND | TARGET_OR_TEST_SYSTEM | VALUE |
| --- | --- | --- |
| CC(C)c1nc(C2CCCN2CCNS(C)(=O)=O)no1 (stereo not given) | Wolbachia pipientis | 98.61 |
| CN(C)CCn1nc(C2CCN(S(=O)(=O)N(C)C)C2)c2cccnc21 (stereo not given) | Wolbachia pipientis | 111.8 |
| CCS(=O)(=O)CCN1CCCC1c1noc(C2CC2)n1 (stereo not given) | Wolbachia pipientis | -6.058 |
| CN(C)S(=O)(=O)N1CCCC(c2nccn2Cc2cccnc2)C1 (stereo not given) | Wolbachia pipientis | -1.241 |
| Cc1nn(C)c(C)c1CCn1cncc1-c1ccc2c(c1)CC(C)N2C.Cl (stereo not given) | Wolbachia pipientis | 101.8 |

Return reported Percent Effect values for all items listed beneath this line.
1. Cc1cccc(=O)n1CCCNc1nc(N(C)C)nc2c1CCNCC2
2. Cc1nc(C2CCCN2CCc2ccccn2)no1 (stereo not given)
3. CC(C)CNC(=O)c1nc2c(s1)CCN(C(=O)c1cccnc1)CC2
4. COCCNC(=O)c1cc2c(s1)CCN2S(C)(=O)=O
5. COCCNC(=O)NCCS(=O)(=O)N1CCN(c2cccc(C)c2)CC1
6. COC(=O)NCC(=O)N1CCCCC1c1nc2cc(F)ccc2[nH]1 (stereo not given)

Given back:
-26.54
0.4664
-3.468
90.75
9.148
-29.13

---

I'd be grateful if you could share measured Percent Effect for these entries.
tested on: Wolbachia pipientis; experiment: Anti-Wolbachia Cell-Based Screen; assay type: functional; parameters: scale not given: in the data most compounds retested in dose-response had high values; details: 5 µM
Out of some 48,000 compounds screened, about 13,000 (27%) showed an effect of 50% or more. Some of the results follow.
One number for each entry, in %.

| COMPOUND | TARGET_OR_TEST_SYSTEM | VALUE |
| --- | --- | --- |
| Br.Cc1cc(C)c(N(CC(O)CNCc2ccccc2)S(C)(=O)=O)c(C)c1 (stereo not given) | Wolbachia pipientis | 104.6 |
| Cc1cc(F)ccc1N1CCCC(NC(=O)CCCn2ccnc2)C1 (stereo not given) | Wolbachia pipientis | 114.8 |
| COc1ccc(CN2CCN(C3CCc4ccccc4C3)CC2)cc1O (stereo not given) | Wolbachia pipientis | 105.5 |
| CCC1=N[C@@]2(CC[C@@H]3CN(S(=O)(=O)N(C)C)C[C@@H]32)C(=O)N1CC(C)C | Wolbachia pipientis | -19.59 |
| Cc1cc(C2CCN(C(=O)c3cnn(C)c3)CC2)ccn1 | Wolbachia pipientis | 94.31 |

Return reported Percent Effect values for all items listed beneath this line.
1. Cc1nc2c(C#N)cnn2c(C)c1CCC(=O)N(C)C1CC1
2. Cc1cc(C)c(N(CC(O)CNCc2ccco2)S(C)(=O)=O)c(C)c1.O=C(O)c1ccccc1 (stereo not given)
3. O=C(NCc1cccc(F)c1)NC1CCCN(c2ncccn2)C1 (stereo not given)
4. O=S(=O)(Cc1cccc(F)c1)NCC(O)Cc1ccccc1 (stereo not given)

Given back:
1. -17.24
2. 101.1
3. 12.98
4. 13.38

Return reported Percent Effect values for all items listed beneath this line.
1. CC(CN1CCOCC1)NC1CCN(Cc2cccc(O)c2)CC1 (stereo not given)
2. O=C(CCCn1ccnc1)NC1CCCN(c2ccccc2Cl)C1 (stereo not given)
3. COc1ccccc1OC1CCN(C(=O)CCCn2ccnc2)CC1
4. Cn1cnc(S(=O)(=O)NCC2CCN(C(=O)Oc3ccccc3)CC2)c1

Given back:
[-2.88, 86.14, 6.898, -16.29]

Return reported Percent Effect values for all items listed beneath this line.
1. CC(C)Cc1ncc2c(n1)CN(c1cc(N3CCCC3)nc(N)n1)C2
2. Cc1ccnc(C2CCN(C(=O)c3cnn(C)c3)C2)n1 (stereo not given)

Given back:
1: -10.3; 2: 83.36
